system: SNB-75; test: NCI tumour cell line growth inhibition, 48 h
Calls of active or inactive are those of the source. Cut-off read from the data, not from the text of the source: active = GI50 up to about 1.1 µM and inactive = higher.
A correct response names exactly one class from active, inactive

{"compound": "CCCC1C(C#N)(C#N)C(C#N)=C(N)C1(C)C(C)=O (centres undefined)", "systemName": "SNB-75", "labelClass": "inactive"}

Just curious, what result did `O=C1CCC(c2ccc(Cl)cc2)=NN1c1nsc2ccccc12` get here? inactive

Just curious, what result did `Cc1ccc(S(=O)(=O)NCCCSCCSCCCN)cc1` get here? inactive

Just curious, what result did CC(=O)CC(=O)CCC(=O)O [SUCCINYLACETONE] get here? active

----------
tested on: SW-620; assay: NCI tumour cell line growth inhibition, 48 h
Calls of active or inactive are those of the source. No stated cut-off is given here; in the data, active = GI50 up to about 1.1 µM and inactive = higher.
A correct response names exactly one class from 1 = active, -1 = inactive

Example cases with answers are listed next.
{"compound": "CC(C)(Oc1ccc(C2C[C@H]2Cl)cc1)C(=O)O (stereo partly specified)", "labelClass": -1}
{"compound": "CNC(c1ccncc1)C(NC)c1ccncc1 (stereo unspecified)", "labelClass": -1}
{"compound": "CCCCCCCCC/C=C/C=C/C(=O)NCC(=O)NC1C(O)C(O)C(Nc2ncnc3[nH]cnc23)OC1C(O)CO (stereo unspecified)", "labelClass": 1}
{"compound": "COc1ccc2nc3c(C(=O)NCCN(C)C)cccc3nc2c1", "labelClass": -1}
{"compound": "Cc1cc(-n2nnc(C(=O)O)c2-c2ccccc2)c2ccc(Cl)cc2n1", "labelClass": -1}

Just curious, what result did `c1ccc2c(c1)[nH]c1c2ncc2[nH]c3ccccc3c21` get here? -1

Just curious, what result did `NS(=O)(=O)c1ccc(NNc2c3ccccc3nc3ccccc23)cc1` get here? -1

Just curious, what result did `CC(C)(C)c1cc2c3c(c1)C(C(F)(F)F)(C(F)(F)F)O[Te]3(C)OC2(C(F)(F)F)C(F)(F)F` get here? -1

----------
Reported GI50 values follow for various molecules
tested on: HOP-18; assay: NCI tumour cell line growth inhibition, 48 h
The source made the active and inactive calls. Cut-off read from the data, not from the text of the source: active = GI50 up to about 1.1 µM and inactive = higher.

{"molecule": "CN(C)c1ccc(/N=C2/C=CC(=C(C#N)C#N)c3ccccc32)cc1", "recordedMeasurement": "1.14 µM (inactive)"}
{"molecule": "Nc1nc(O)c2c(ncn2CCO)n1", "recordedMeasurement": "> 100 µM (inactive)"}

# evaluate next
Indicate its recorded GI50; the molecule in question is CCCCCCCCCOCC(COP(=O)([O-])OCC[N+](C)(C)C)OC (stereo not drawn) > 100 µM (inactive)

----------
test system: COLO 205; test: NCI tumour cell line growth inhibition, 48 h
Activity calls are given as the source filed them. Cut-off read from the data, not from the text of the source: active = GI50 up to about 1.1 µM and inactive = higher.
A correct response names exactly one class from active, inactive

{"compound": "COC(=O)C1CC(C=[N+](C)C)=C(SC)N1 (stereo not drawn)", "labelClass": "inactive"}
{"compound": "COc1ccc(Nc2cc(O)nc(O)n2)cc1", "labelClass": "inactive"}
{"compound": "Nc1cc[nH]c(=O)n1", "labelClass": "inactive"}
{"compound": "O=C1NC(=O)c2ccccc2/C1=C/c1ccc2c(c1)OCO2", "labelClass": "inactive"}
{"compound": "[O-][n+]1cn[n+]([O-])c2ccccc21", "labelClass": "inactive"}

Just curious, what result did `Cn1c(O)c(C(=O)NC2CCCCC2)c(=O)n(C)c1=S` get here? inactive

Just curious, what result did `CCCCn1c(O)nc2c(N)ncnc21` get here? inactive

Just curious, what result did NC(Cc1ccccc1)C(=O)N[C@H]1c2ccsc2/C(=N/O)[C@H]1O (stereo partly drawn) get here? inactive
